- EXPERIMENTAL_TARGET: Alpha-1B adrenergic receptor (Homo sapiens)
- Sequence (P35368 whole entry): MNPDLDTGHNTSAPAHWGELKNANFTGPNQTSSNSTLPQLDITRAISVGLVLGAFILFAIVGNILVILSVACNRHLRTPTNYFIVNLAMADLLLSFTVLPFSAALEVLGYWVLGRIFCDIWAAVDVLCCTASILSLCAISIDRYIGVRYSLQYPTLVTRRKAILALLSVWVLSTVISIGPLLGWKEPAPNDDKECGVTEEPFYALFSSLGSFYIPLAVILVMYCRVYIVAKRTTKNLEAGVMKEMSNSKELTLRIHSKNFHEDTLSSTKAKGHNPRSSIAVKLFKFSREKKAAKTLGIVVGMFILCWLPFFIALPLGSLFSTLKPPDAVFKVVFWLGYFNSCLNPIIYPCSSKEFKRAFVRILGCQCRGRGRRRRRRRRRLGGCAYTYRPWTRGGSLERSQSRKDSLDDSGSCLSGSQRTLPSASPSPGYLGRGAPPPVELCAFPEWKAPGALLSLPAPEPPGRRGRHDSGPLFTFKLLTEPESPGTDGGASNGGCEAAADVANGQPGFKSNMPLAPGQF
- ASSAY_TEXT: Binding affinity measured in CHO cells expressing human cloned Alpha-1B adrenergic receptor expressed as pKi
pKi: −log10 of the molar value.
QUANTITY_MEASURED: pKi

These recorded examples may help you get a feel for the data.
MOLECULE	pKi
COc1cc2nc3c(c(O)c2cc1OC)CCC(CNC(=O)c1ccco1)C3 (stereo not drawn)	6.53
COc1cc2nc3c(c(N)c2cc1OC)CCC(CNCCOc1c(OC)cccc1OC)C3 (stereo not drawn)	7.40
COc1cc2nc3c(c(N)c2cc1OC)CCC(CNC(=O)c1ccc(C(F)(F)F)cc1)C3 (stereo not drawn)	8.05
COc1cc2nc3c(c(O)c2cc1OC)CCC(CNCCOc1c(OC)cccc1OC)C3 (stereo not drawn)	6.66

P. COc1cc2nc3c(c(N)c2cc1OC)CCC(CNC(=O)c1cccc(C(F)(F)F)c1)C3 (stereo not drawn)
Q. COc1cc2nc3c(c(N)c2cc1OC)CC(CNC(=O)c1ccco1)C3 (stereo not drawn)
QUERY: Rank P against Q by their pKi values and give the higher one. Provide the label of your selected option as the answer.
RESULT: P

A. COc1cc2nc3c(c(N)c2cc1OC)CCC(CNC(=O)c1ccco1)C3 (stereo not drawn)
B. COc1cc2nc3c(c(N)c2cc1OC)CCC(CNC(=O)c1ccccc1C(F)(F)F)C3 (stereo not drawn)
QUERY: Lab notebook, comparison: A versus B , higher pKi goes to which? In your reply, give the label of the chosen option.
RESULT: B

====

- EXPERIMENTAL_TARGET: Alpha-1D adrenergic receptor (Rattus norvegicus) (UniProt P23944)
- Sequence (P23944 whole entry): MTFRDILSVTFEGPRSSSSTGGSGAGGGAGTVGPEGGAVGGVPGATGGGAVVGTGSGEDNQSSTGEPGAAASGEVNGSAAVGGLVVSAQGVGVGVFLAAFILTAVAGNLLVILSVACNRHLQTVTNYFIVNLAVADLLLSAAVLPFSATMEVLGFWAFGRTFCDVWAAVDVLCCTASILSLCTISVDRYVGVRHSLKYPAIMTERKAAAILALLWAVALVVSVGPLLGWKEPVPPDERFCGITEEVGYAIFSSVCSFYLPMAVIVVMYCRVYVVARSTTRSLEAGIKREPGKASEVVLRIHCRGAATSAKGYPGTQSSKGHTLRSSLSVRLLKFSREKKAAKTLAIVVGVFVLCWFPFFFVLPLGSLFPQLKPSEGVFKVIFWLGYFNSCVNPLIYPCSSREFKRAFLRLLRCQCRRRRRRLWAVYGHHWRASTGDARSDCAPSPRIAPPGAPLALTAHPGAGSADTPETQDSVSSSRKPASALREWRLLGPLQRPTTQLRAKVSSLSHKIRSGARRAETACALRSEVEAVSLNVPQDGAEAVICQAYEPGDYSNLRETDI
- TEST_PARAMETERS: Aorta
QUANTITY_MEASURED: pKB

COMPOUND	pKB
COc1cc2nc3c(c(N)c2cc1OC)CCCC(CNC(=O)c1ccco1)C3 (stereo not given)	6.94
COc1cc2nc3c(c(N)c2cc1OC)CCC(CNC(=O)c1ccco1)C3 (stereo not given)	7.47
COc1cc2nc3c(c(N)c2cc1OC)CCC(CNCCOc1c(OC)cccc1OC)C3 (stereo not given)	6.39
COc1cc2nc3c(c(O)c2cc1OC)CCC(CNC(=O)c1ccco1)C3 (stereo not given)	6.41
COc1cccc(OC)c1OCCNCC1COc2ccccc2O1 (stereo not given)	8.85

====

- EXPERIMENTAL_TARGET: Alpha-1B adrenergic receptor (Rattus norvegicus)
- Sequence (whole entry): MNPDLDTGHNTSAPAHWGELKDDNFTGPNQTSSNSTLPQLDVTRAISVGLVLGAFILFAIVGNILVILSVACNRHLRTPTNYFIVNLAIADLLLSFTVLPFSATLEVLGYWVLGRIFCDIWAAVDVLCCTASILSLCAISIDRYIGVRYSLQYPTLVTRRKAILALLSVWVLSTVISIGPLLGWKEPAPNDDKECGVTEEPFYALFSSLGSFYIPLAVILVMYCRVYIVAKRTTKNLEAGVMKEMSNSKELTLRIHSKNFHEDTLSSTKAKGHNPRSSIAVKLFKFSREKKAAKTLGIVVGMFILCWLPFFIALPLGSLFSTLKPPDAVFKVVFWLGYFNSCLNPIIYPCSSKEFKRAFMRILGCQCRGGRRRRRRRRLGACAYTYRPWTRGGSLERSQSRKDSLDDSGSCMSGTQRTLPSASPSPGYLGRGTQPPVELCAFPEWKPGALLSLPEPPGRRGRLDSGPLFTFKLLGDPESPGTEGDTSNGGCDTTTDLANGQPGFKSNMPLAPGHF
- ASSAY_TEXT: Affinity was evaluated against Alpha-1B adrenoceptor in isolated rat spleen expressed as pKB
- Assay type: tissue-based
QUANTITY_MEASURED: pKB

COMPOUND	EXPERIMENTAL_TARGET	pKB
COc1cc2nc3c(c(N)c2cc1OC)CCC(CNC(=O)c1ccccc1C(F)(F)F)C3 (stereo not given)	Alpha-1B adrenergic receptor (Rattus norvegicus)	7.33
COc1cc2nc3c(c(N)c2cc1OC)CCC(CNC(=O)c1cccc(C(F)(F)F)c1)C3 (stereo not given)	Alpha-1B adrenergic receptor (Rattus norvegicus)	7.36
COc1cc2nc3c(c(N)c2cc1OC)CC(CNC(=O)c1ccco1)C3 (stereo not given)	Alpha-1B adrenergic receptor (Rattus norvegicus)	6.82
COc1cc2nc3c(c(N)c2cc1OC)CCC(CNC(=O)c1ccc(C(F)(F)F)cc1)C3 (stereo not given)	Alpha-1B adrenergic receptor (Rattus norvegicus)	7.2
COc1cc2nc3c(c(O)c2cc1OC)CCC(CNCCOc1c(OC)cccc1OC)C3 (stereo not given)	Alpha-1B adrenergic receptor (Rattus norvegicus)	7.05
COc1cc2nc3c(c(N)c2cc1OC)CCC(CNCCOc1c(OC)cccc1OC)C3 (stereo not given)	Alpha-1B adrenergic receptor (Rattus norvegicus)	7.2
COc1cc2nc3c(c(N)c2cc1OC)CCC(CNC(=O)c1ccccc1)C3 (stereo not given)	Alpha-1B adrenergic receptor (Rattus norvegicus)	7.19
COc1cc2nc3c(c(O)c2cc1OC)CCC(CNC(=O)c1ccco1)C3 (stereo not given)	Alpha-1B adrenergic receptor (Rattus norvegicus)	6.95
COc1cc2nc3c(c(N)c2cc1OC)CCCC(CNC(=O)c1ccco1)C3 (stereo not given)	Alpha-1B adrenergic receptor (Rattus norvegicus)	6.92
COc1cccc(OC)c1OCCNCC1COc2ccccc2O1 (stereo not given)	Alpha-1B adrenergic receptor (Rattus norvegicus)	8.2

====

- EXPERIMENTAL_TARGET: Alpha-1A adrenergic receptor (Rattus norvegicus)
- TEST_PARAMETERS: Vas deferens
- Description: Binding affinity for Alpha-1A adrenergic receptor of isolated rat vas deferens as pKB
QUANTITY_MEASURED: pKB

Example results:
COMPOUND	pKB
COc1cc2nc3c(c(N)c2cc1OC)CCC(CNC(=O)c1ccc(C(F)(F)F)cc1)C3 (stereo unspecified)	6.08
COc1cc2nc3c(c(N)c2cc1OC)CCCC(CNC(=O)c1ccco1)C3 (stereo unspecified)	6.34
COc1cc2nc3c(c(N)c2cc1OC)CCC(CNC(=O)c1cccc(C(F)(F)F)c1)C3 (stereo unspecified)	7.16
COc1cc2nc3c(c(N)c2cc1OC)CCC(CNCCOc1c(OC)cccc1OC)C3 (stereo unspecified)	5.7
COc1cc2nc3c(c(N)c2cc1OC)CC(CNC(=O)c1ccco1)C3 (stereo unspecified)	6.26

I. COc1cc2nc3c(c(N)c2cc1OC)CCC(CNC(=O)c1ccccc1C(F)(F)F)C3 (stereo unspecified)
II. COc1cccc(OC)c1OCCNCC1COc2ccccc2O1 (stereo unspecified)
QUERY: Pick the one with the larger pKB: I vs II Answer by quoting the chosen item's label.
RESULT: II

====

- EXPERIMENTAL_TARGET: Alpha-1D adrenergic receptor (Rattus norvegicus)
- ASSAY_TEXT: Affinity was evaluated against Alpha-1D adrenergic receptor in isolated rat aorta expressed as pKB
- Assay type: tissue-based
QUANTITY_MEASURED: pKB

COMPOUND	OBSERVED_MEASUREMENT
COc1cc2nc3c(c(O)c2cc1OC)CCC(CNCCOc1c(OC)cccc1OC)C3 (stereo unspecified)	5.92
COc1cc2nc3c(c(N)c2cc1OC)CCC(CNC(=O)c1ccccc1C(F)(F)F)C3 (stereo unspecified)	6.85
COc1cc2nc3c(c(N)c2cc1OC)CCC(CNC(=O)c1cccc(C(F)(F)F)c1)C3 (stereo unspecified)	7.58
COc1cc2nc3c(c(N)c2cc1OC)CCC(CNC(=O)c1ccccc1)C3 (stereo unspecified)	6.63
COc1cc2nc3c(c(N)c2cc1OC)CC(CNC(=O)c1ccco1)C3 (stereo unspecified)	6.11
COc1cc2nc3c(c(N)c2cc1OC)CCC(CNC(=O)c1ccc(C(F)(F)F)cc1)C3 (stereo unspecified)	6.67

====

- EXPERIMENTAL_TARGET: Alpha-1A adrenergic receptor (Homo sapiens, UniProt P35348)
- Sequence (P35348 whole entry): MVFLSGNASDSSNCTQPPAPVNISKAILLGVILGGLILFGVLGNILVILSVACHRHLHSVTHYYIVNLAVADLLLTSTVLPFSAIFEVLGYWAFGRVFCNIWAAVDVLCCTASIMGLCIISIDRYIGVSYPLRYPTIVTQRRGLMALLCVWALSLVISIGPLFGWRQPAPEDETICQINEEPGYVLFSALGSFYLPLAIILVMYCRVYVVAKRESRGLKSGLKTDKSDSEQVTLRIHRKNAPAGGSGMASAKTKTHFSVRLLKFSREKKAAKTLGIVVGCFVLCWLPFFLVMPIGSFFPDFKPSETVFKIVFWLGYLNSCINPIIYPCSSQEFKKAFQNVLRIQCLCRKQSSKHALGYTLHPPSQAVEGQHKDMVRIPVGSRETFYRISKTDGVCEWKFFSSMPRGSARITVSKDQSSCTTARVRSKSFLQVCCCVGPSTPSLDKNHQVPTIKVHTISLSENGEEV
- ASSAY_TEXT: Binding affinity measured in CHO cells expressing human cloned Alpha-1A adrenergic receptor expressed as pKi
QUANTITY_MEASURED: Ki (nM)

MOLECULE	OBSERVED_MEASUREMENT
COc1cc2nc3c(c(O)c2cc1OC)CCC(CNCCOc1c(OC)cccc1OC)C3 (stereo not drawn)	1700
COc1cc2nc3c(c(N)c2cc1OC)CCC(CNC(=O)c1ccccc1C(F)(F)F)C3 (stereo not drawn)	288
COc1cc2nc3c(c(N)c2cc1OC)CCC(CNC(=O)c1cccc(C(F)(F)F)c1)C3 (stereo not drawn)	31.6
COc1cc2nc3c(c(N)c2cc1OC)CCC(CNC(=O)c1ccc(C(F)(F)F)cc1)C3 (stereo not drawn)	85.1
COc1cc2nc3c(c(N)c2cc1OC)CC(CNC(=O)c1ccco1)C3 (stereo not drawn)	158

I. COc1cc2nc3c(c(N)c2cc1OC)CCC(CNCCOc1c(OC)cccc1OC)C3 (stereo not drawn)
II. COc1cc2nc3c(c(O)c2cc1OC)CCC(CNC(=O)c1ccco1)C3 (stereo not drawn)
III. COc1cc2nc3c(c(N)c2cc1OC)CCC(CNC(=O)c1ccco1)C3 (stereo not drawn)
QUERY: Order the items by recorded Ki; the first position goes to the largest value. Form entry: labels listed in requested order.
RESULT: II, I, III
(II: 2570 nM, I: 977 nM, III: 95.5 nM)
